Test system: L. donovani intracellular amastigotes
Experiment: Intracellular amastigote high-throughput image-based assay in infected THP-1 macrophages
Type: cell-based, Leishmania donovani
Conditions: Leishmania donovani, THP-1, 72 h, L. donovani in THP-1, 72 h, parasites per host cell; read-out: GI50 Intracellular amastigote
Counter-ions that a name gives are not always drawn.
Some compounds, each annotated with its measured GI50.
MEASURED PARAMETER: GI50

compound="CCN(CCCCOC(=O)c1ccc(OC)c(OC)c1)C(C)Cc1ccc(OC)cc1 (stereo not shown)" measured_parameter=GI50 measured="8.5 µM"
compound="CC/C(=C(\\c1ccccc1)c1ccc(OCCN(C)C)cc1)c1ccccc1 [Tamoxifen Citrate]" measured_parameter=GI50 measured="20.8 µM"
compound="CCCCCC[C@H]1C(=O)O[C@H](C)[C@H](NC(=O)c2cccc(NC=O)c2O)C(=O)O[C@@H](C)[C@@H]1OC(=O)CC(C)C [Antimycin A]" measured_parameter=GI50 measured="2.15 µM"
compound="C=C1C(=O)O[C@H]2[C@H]1CC/C(C)=C/CC[C@@]1(C)O[C@@H]21 [Parthenolide]" measured_parameter=GI50 measured="> 50 µM"
compound=CCN(CC)c1ccc(C(=C2C=CC(=[N+](CC)CC)C=C2)c2ccccc2)cc1 measured_parameter=GI50 measured="6 µM"
compound=Cc1cc(C2CCCCC2)n(O)c(=O)c1 measured_parameter=GI50 measured="22 µM"
compound=[H]/N=C(\N/C(=N/[H])NCCCCCCNC(=N)NC(=N)Nc1ccc(Cl)cc1)Nc1ccc(Cl)cc1 measured_parameter=GI50 measured="1.79 µM"

* * *

System: THP-1
Assay: Host cell toxicity: THP-1 host nuclei counts in the image-based assay
Conditions: ratio between parasite GI50 and THP-1 GI50
MEASURED PARAMETER: Selectivity

compound=COc1c(Cl)cc2c(c1OC)N(C)[C@@H]1N3C(=O)[C@@]4(C)SS[C@@]3(C(=O)N4C)[C@H](O)[C@]21O tested_target=THP-1 measured=0.02
compound=Cc1cc(C2CCCCC2)n(O)c(=O)c1 tested_target=THP-1 measured=1.90
compound=COCc1c(C(C)C)nc(C(C)C)c(/C=C/[C@@H](O)C[C@@H](O)CC(=O)O)c1-c1ccc(F)cc1 tested_target=THP-1 measured=0.66
compound="C=C1C(=O)O[C@H]2[C@H]1CC/C(C)=C/CC[C@@]1(C)O[C@@H]21 [Parthenolide]" tested_target=THP-1 measured=1.06
compound="COc1ccccc1OCCNCC(O)COc1cccc2[nH]c3ccccc3c12 (stereo not shown)" tested_target=THP-1 measured=6.07
compound=CC[C@@H](C(=O)[C@@H](C)[C@@H](O)[C@H](C)[C@@H]1O[C@@H]([C@@H](CC)C(=O)O)CC[C@@H]1C)[C@H]1O[C@]2(C=C[C@@H](O)[C@]3(CC[C@@](C)([C@H]4CC[C@](O)(CC)[C@H](C)O4)O3)O2)[C@H](C)C[C@@H]1C tested_target=THP-1 measured=17.30
compound=[H]/N=C(\N/C(=N/[H])NCCCCCCNC(=N)NC(=N)Nc1ccc(Cl)cc1)Nc1ccc(Cl)cc1 tested_target=THP-1 measured=9.27

* * *

Some molecules, each annotated with its measured GI50.
Test system: THP-1
Assay: Host cell toxicity: THP-1 host nuclei counts in the image-based assay
Conditions: read-out: GI50 THP-1; PMA-differentiated infected THP-1, 72 h, host nuclei count
MEASURED PARAMETER: GI50 (µM)

molecule=CC(=O)OC[C@H]1O[C@@H]([S-])[C@H](OC(C)=O)[C@@H](OC(C)=O)[C@@H]1OC(C)=O.CCP(CC)CC.[Au+] measured_parameter=GI50 unit_symbol=µM reported_relation== measured=20.9
molecule=CC[C@@]1(O)C[C@H](O[C@H]2C[C@H](N(C)C)[C@H](O[C@H]3C[C@H](O)[C@H](O[C@H]4CCC(=O)[C@H](C)O4)[C@H](C)O3)[C@H](C)O2)c2c(cc3c(c2O)C(=O)c2c(O)cccc2C3=O)[C@H]1C(=O)OC measured_parameter=GI50 unit_symbol=µM reported_relation== measured=29.1
molecule=COc1c(Cl)cc2c(c1OC)N(C)[C@@H]1N3C(=O)[C@@]4(C)SS[C@@]3(C(=O)N4C)[C@H](O)[C@]21O measured_parameter=GI50 unit_symbol=µM reported_relation== measured=0.02
molecule=CC(C)(C)c1ccc(S(=O)(=O)/C=C/C#N)cc1 measured_parameter=GI50 unit_symbol=µM reported_relation=> measured=50
molecule="COc1cc2nc(N3CCN(C(=O)c4ccco4)CC3)nc(N)c2cc1OC.Cl [Prazocin Hydrochloride]" measured_parameter=GI50 unit_symbol=µM reported_relation== measured=23.3
molecule=C[CH2][Hg][S]c1ccccc1C(=O)[O-].[Na+] measured_parameter=GI50 unit_symbol=µM reported_relation== measured=12.8
molecule="CCC(c1ccc(OCCN(CC)CC)cc1)C(CC)c1ccc(OCCN(CC)CC)cc1 (stereo not shown)" measured_parameter=GI50 unit_symbol=µM reported_relation== measured=6.11

* * *

System: L. donovani promastigotes
Test: Promastigote high-throughput ATP-bioluminescence assay
Type: cell-based, Leishmania donovani
Conditions: Leishmania donovani; 72 h at 27°C, CellTiter-Glo; read-out: GI50 Promastigote
Where a name gives a salt, the structure may show the parent alone.
Some compounds, each annotated with its measured log10(GI50).
MEASURED PARAMETER: log10(GI50) (log10 of the value in µM)

compound="CC[C@@H](C(=O)[C@@H](C)[C@@H](O)[C@H](C)[C@@H]1O[C@@H]([C@@H](CC)C(=O)O)CC[C@@H]1C)[C@H]1O[C@]2(C=C[C@@H](O)[C@]3(CC[C@@](C)([C@H]4CC[C@](O)(CC)[C@H](C)O4)O3)O2)[C@H](C)C[C@@H]1C [Salinomycin]" tested_target="L. donovani promastigotes" measured=0.43
compound="CC(C)(C)c1ccc(C(O)CCCN2CCC(C(O)(c3ccccc3)c3ccccc3)CC2)cc1 (stereo not drawn) [Terfenadine]" tested_target="L. donovani promastigotes" measured=1.08
compound="CN(C)C(=S)SSC(=S)N(C)C [Thiram]" tested_target="L. donovani promastigotes" measured=0.66
compound="CC(=O)[C@]1(O)Cc2c(O)c3c(c(O)c2[C@@H](O[C@H]2C[C@H](N)[C@H](O)[C@H](C)O2)C1)C(=O)c1ccccc1C3=O [Idarubicin]" tested_target="L. donovani promastigotes" measured=0.67
compound="Clc1ccccc1C(c1ccccc1)(c1ccccc1)n1ccnc1 [Clotrimazole]" tested_target="L. donovani promastigotes" measured=1.11
compound="Clc1ccc(COC(Cn2ccnc2)c2ccc(Cl)cc2Cl)c(Cl)c1 (stereo not drawn) [Miconazole]" tested_target="L. donovani promastigotes" measured=0.87
compound="C=C1C(=O)O[C@H]2[C@H]1CC/C(C)=C/CC[C@@]1(C)O[C@@H]21 [Parthenolide]" tested_target="L. donovani promastigotes" measured=1.19
compound="Clc1cc(Cl)c(OCC#CI)cc1Cl [Haloprogin]" tested_target="L. donovani promastigotes" measured=0.02
compound="Cc1c(-c2ccc(O)cc2)n(Cc2ccc(OCCN3CCCCCC3)cc2)c2ccc(O)cc12 [Bazedoxifene]" tested_target="L. donovani promastigotes" measured=0.81
compound="Cc1ccc2c(Cl)cc(Cl)c(O)c2n1 [chlorquinaldol]" tested_target="L. donovani promastigotes" measured=0.80
compound="[H]/N=C(\\N/C(=N/[H])NCCCCCCNC(=N)NC(=N)Nc1ccc(Cl)cc1)Nc1ccc(Cl)cc1 [Chlorhexidine]" tested_target="L. donovani promastigotes" measured=0.45
compound="COc1ccccc1OCCNCC(O)COc1cccc2[nH]c3ccccc3c12 (stereo not drawn) [Carvedilol]" tested_target="L. donovani promastigotes" measured=1.09
compound="Cc1cc(C2CCCCC2)n(O)c(=O)c1 [Ciclopirox]" tested_target="L. donovani promastigotes" measured=1.18
compound="C[C@@H]1CC[C@@]2(OC1)O[C@H]1[C@@H](O)[C@H]3[C@@H]4CC[C@H]5C[C@@H](O[C@@H]6O[C@H](CO)[C@H](O[C@@H]7O[C@H](CO)[C@@H](O)[C@H](O[C@@H]8OC[C@@H](O)[C@H](O)[C@H]8O)[C@H]7O[C@@H]7O[C@H](CO)[C@H](O)[C@H](O[C@@H]8O[C@H](CO)[C@@H](O)[C@H](O)[C@H]8O)[C@H]7O)[C@H](O)[C@H]6O)[C@H](O)C[C@]5(C)[C@H]4CC[C@]3(C)[C@H]1[C@@H]2C [Digitonin]" tested_target="L. donovani promastigotes" measured=0.64
compound="CCOC(=O)C1=C(COCCN)NC(C)=C(C(=O)OC)C1c1ccccc1Cl (stereo not drawn) [Amlodipine]" tested_target="L. donovani promastigotes" measured=0.49
compound="CN(C)C(=O)C(CCN1CCC(O)(c2ccc(Cl)cc2)CC1)(c1ccccc1)c1ccccc1 [Loperamide Hydrochloride]" tested_target="L. donovani promastigotes" measured=1.24
compound="Nc1c2ccccc2nc2ccccc12 [Aminacrine]" tested_target="L. donovani promastigotes" measured=0.95
compound="C[C@@H]1[C@H](O)[C@@H](C)/C=C/C=C/C=C/C=C/C=C/C=C/C=C/[C@H](O[C@@H]2O[C@H](C)[C@@H](O)[C@H](N)[C@@H]2O)C[C@@H]2O[C@](O)(C[C@@H](O)C[C@@H](O)[C@H](O)CC[C@@H](O)C[C@@H](O)CC(=O)O[C@H]1C)C[C@H](O)[C@H]2C(=O)O [Amphotericin B]" tested_target="L. donovani promastigotes" measured=0.21
compound="CCN(CCCCOC(=O)c1ccc(OC)c(OC)c1)C(C)Cc1ccc(OC)cc1 (stereo not drawn) [Mebeverine]" tested_target="L. donovani promastigotes" measured=0.84
compound="CCOc1ccccc1OCCN[C@H](C)Cc1ccc(OC)c(S(N)(=O)=O)c1 [Tamsulosin]" tested_target="L. donovani promastigotes" measured=1.30
compound="CCCCCC[C@H]1C(=O)O[C@H](C)[C@H](NC(=O)c2cccc(NC=O)c2O)C(=O)O[C@@H](C)[C@@H]1OC(=O)CC(C)C [Antimycin A]" tested_target="L. donovani promastigotes" measured=-1.00
compound="COC(=O)C1=C(C)NC(C)=C(C(=O)OCC(C)C)C1c1ccccc1[N+](=O)[O-] (stereo not drawn) [Nisoldipine]" tested_target="L. donovani promastigotes" measured=0.99
compound="CC[C@H]1CN2CCc3cc(OC)c(OC)cc3[C@@H]2C[C@@H]1C[C@H]1NCCc2cc(OC)c(OC)cc21 [Emetine]" tested_target="L. donovani promastigotes" measured=-1.52
compound="CCN(CC)c1ccc(C(=C2C=CC(=[N+](CC)CC)C=C2)c2ccccc2)cc1 [Brilliant green]" tested_target="L. donovani promastigotes" measured=-1.00
compound="COCc1c(C(C)C)nc(C(C)C)c(/C=C/[C@@H](O)C[C@@H](O)CC(=O)O)c1-c1ccc(F)cc1 [Cerivastatin]" tested_target="L. donovani promastigotes" measured=1.03
compound="CN1C[C@H](CNC(=O)OCc2ccccc2)C[C@@H]2c3cccc4c3c(cn4C)C[C@H]21 [Metergoline]" tested_target="L. donovani promastigotes" measured=1.18
